Assay: Pharmacokinetics assay in rat
Assay type: in vivo, SD rats
Settings: male, SD, plasma, 1 mg/kg, IV 1 mpk, read-out: Vdss
REPORTED PROPERTY: Vd (L/kg)
Your answer is read as L/kg, so omit the unit and give the number.

-- ask State its Vd for this molecule: CCCCOc1nc(N)c2[nH]cc(Cc3cnc(CN4CCCC4)s3)c2n1 [Example 1]
-- reply 13.5

----------
Test: Pharmacokinetics assay in rat
Assay type: in vivo, SD rats
Details: male, SD, plasma, 3 mg/kg, PO 3 mpk, read-out: T½ (converted)
REPORTED PROPERTY: half-life (h)
Express your answer in h, writing the number without its unit.

-- ask For CCCCOc1nc(N)c2[nH]cc(Cc3cnc(CN4CCCC4)s3)c2n1 , write its half-life.
-- reply 1.54

----------
Experiment: Pharmacokinetics assay in rat
Format: in vivo, SD rats
Conditions: male, SD, plasma, 3 mg/kg, PO 3 mpk
REPORTED PROPERTY: AUC(0-inf) (µM·h)
Report only the number, with the unit µM·h understood.

-- ask Please report AUC(0-inf) for the following compound: CCCCOc1nc(N)c2[nH]cc(Cc3cnc(CN4CCCC4)s3)c2n1 [Example 1]
-- reply 0.325

----------
Assay: Pharmacokinetics assay in rat
Type: in vivo, SD rats
Conditions: male, SD, plasma, 1 mg/kg, IV 1 mpk
REPORTED PROPERTY: AUC(0-inf) (µM·h)
Supply the numeric figure in µM·h, leaving out any unit text.

-- ask // Input: CCCCOc1nc(N)c2[nH]cc(Cc3cnc(CN4CCCC4)s3)c2n1 [Example 1] . Output its AUC(0-inf) only.
-- reply 0.573

----------
Assay: Pharmacokinetics assay in rat
Type: in vivo, SD rats
Conditions: male, SD, plasma, 1 mg/kg, IV 1 mpk, read-out: T½ (converted)
REPORTED PROPERTY: half-life
Record the result as a number with its unit.

-- ask Retrieve half-life measured for CCCCOc1nc(N)c2[nH]cc(Cc3cnc(CN4CCCC4)s3)c2n1 [Example 1] and print it.
-- reply 3.08 h

----------
Assay: Pharmacokinetics assay in rat
Type: in vivo, SD rats
Settings: male, SD, plasma, 3 mg/kg, PO 3 mpk, read-out: C0 or Cmax
REPORTED PROPERTY: Cmax (nM)
The reply should be a number in nM, with the unit left off.

-- ask Given the compound CCCCOc1nc(N)c2[nH]cc(Cc3cnc(CN4CCCC4)s3)c2n1 , write its reported Cmax.
-- reply 148

----------
Assay: Pharmacokinetics assay in rat
Type: in vivo, SD rats
Conditions: male, SD, plasma, 1 mg/kg, IV 1 mpk
REPORTED PROPERTY: AUC(0-t) (µM·h)
Numeric answer only, unit µM·h assumed.

-- ask State its AUC(0-t): CCCCOc1nc(N)c2[nH]cc(Cc3cnc(CN4CCCC4)s3)c2n1 [Example 1]
-- reply 0.541

----------
Biological target: Toll-like receptor 7 (HEK-blue hTLR7 cell) (Homo sapiens, UniProt Q9NYK1)
Sequence (Q9NYK1 27-1049): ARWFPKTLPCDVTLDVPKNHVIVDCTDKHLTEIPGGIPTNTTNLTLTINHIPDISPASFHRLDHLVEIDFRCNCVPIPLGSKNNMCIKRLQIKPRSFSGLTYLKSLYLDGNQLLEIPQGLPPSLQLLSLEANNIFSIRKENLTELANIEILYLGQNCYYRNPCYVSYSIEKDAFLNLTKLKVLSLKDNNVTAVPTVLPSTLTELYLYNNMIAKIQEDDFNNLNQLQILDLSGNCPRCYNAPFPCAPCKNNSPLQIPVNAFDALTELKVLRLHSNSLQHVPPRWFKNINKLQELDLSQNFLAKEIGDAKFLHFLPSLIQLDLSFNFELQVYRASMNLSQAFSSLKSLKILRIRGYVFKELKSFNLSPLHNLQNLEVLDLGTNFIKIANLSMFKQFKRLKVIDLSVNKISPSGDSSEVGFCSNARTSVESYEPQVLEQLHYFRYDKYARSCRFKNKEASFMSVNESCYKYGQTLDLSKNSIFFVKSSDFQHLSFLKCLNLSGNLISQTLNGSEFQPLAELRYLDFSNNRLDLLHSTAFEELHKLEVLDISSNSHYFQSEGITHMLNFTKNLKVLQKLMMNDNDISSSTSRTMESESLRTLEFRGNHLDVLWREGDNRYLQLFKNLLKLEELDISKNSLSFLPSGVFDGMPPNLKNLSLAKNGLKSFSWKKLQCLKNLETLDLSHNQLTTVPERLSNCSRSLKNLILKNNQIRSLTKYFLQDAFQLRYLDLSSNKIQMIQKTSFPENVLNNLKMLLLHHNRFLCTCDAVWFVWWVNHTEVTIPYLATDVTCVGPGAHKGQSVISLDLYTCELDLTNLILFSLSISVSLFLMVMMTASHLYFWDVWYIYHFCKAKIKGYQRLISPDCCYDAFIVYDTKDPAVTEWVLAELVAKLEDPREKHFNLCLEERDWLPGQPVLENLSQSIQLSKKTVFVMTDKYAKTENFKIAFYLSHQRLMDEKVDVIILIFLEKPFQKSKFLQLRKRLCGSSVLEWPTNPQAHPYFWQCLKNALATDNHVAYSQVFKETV
Test: Toll-like receptor 7 in vitro receptor binding activity (HEK-blue hTLR7 cell, Quanti-Blue alkaline phosphatase reporter)
Conditions: 24 h incubation, read-out: TLR7 EC50
Description: Experimental Example 1: Toll-Like Receptor 7 and Toll-Like Receptor 8 In Vitro Receptor Binding Activity HEK-blue hTLR7 cell and HEK-blue hTLR8 cell (available from InvivoGen) The GS-9620 and R848 used have the following structures. GS-9620 can be prepared according the process disclosed in US20100143301; R848 is purchased from ABGENT (Catalog: IMG-2208, 0.5 mg). […] 6. After 1 h, the content of alkaline phosphatase in 20 μL of supernatant was determined using Microplate Reader at OD650. […]
REPORTED PROPERTY: EC50 (nM)
Give your result in nM as a bare value.

-- ask Note down EC50 recorded for CCCCOc1nc(N)c2[nH]cc(Cc3cnc(CN4CCCC4)s3)c2n1 [Example 1]
-- reply 454
